Numbers sourced from ChEMBL document CHEMBL1201862.

tested on: SK-MEL-28; test: NCI tumour cell line growth inhibition, 48 h
Calls of active or inactive are those of the source. Cut-off read from the data, not from the text of the source: active = GI50 up to about 1.1 µM and inactive = higher.
observation-type: GI50

# compound, system-under-test, GI50
rows = [
    ("O=CN1CCN(C(=O)c2ccco2)C1=S", "SK-MEL-28", "15.9 µM (inactive)"),
    ("CC(C)(C)[Si](C)(C)OCC1OC(n2cnc3c(=O)[nH]c(N)nc32)C(O[Si](C)(C)C(C)(C)C)C1O[Si](C)(C)C(C)(C)C (centres undefined)", "SK-MEL-28", "1.93 µM (inactive)"),
]

Give recorded GI50. CCOC(=O)C1=C(C)OC(=O)[C@@]2(OC)C=C(Cl)[C@@]12C > 100 µM (inactive)

Please list GI50 recorded for the compound CC(=O)NC1C(CO)O[C@@H]2OC(C)(C)O[C@H]12 (some centres undefined) > 100 µM (inactive)
